Measured values drawn from PubChem BioAssay (NCI) for this set.

System: NCI-H322M lung
Assay: NCI-60 one-dose screen, 48 h (100 = growth as untreated, 0 = no growth, -100 = all killed)
Conditions: 10 µM unless noted
This is part of a sample that, as a whole, favours compounds with a hit. Of some 83,000 tested, about 20% had one in any assay.
For each entry below, report its growth value.
Kindly provide the numeric value in % only, without the unit symbol.

Missing value: growth, NCI-H322M lung, entry CC(C)(C)CC(C)(C)Nc1c(-c2ccc(-c3ccccc3)cc2)nc2cnccn12 . Fill in?
81.5

Could you do the same for O=C1/C(=C/c2ccc([N+](=O)[O-])cc2)COc2ccc(O)c(O)c21 , please?
42.7

Could you do the same for CCCn1nc(-c2ccccc2)c2c(-c3ccccc3)onc2c1=O , please?
95.4

Could you do the same for CS(=O)(=O)c1ccc(-c2[nH]c3ccc(F)cc3c2/C=N/NC(N)=S)cc1 , please?
48.8

Could you do the same for CCOC(=O)C(O)C(O)(c1ccccc1)c1ccccc1 (stereo not given) , please?
96.7
